Read-out: Urokinase-type plasminogen activator receptor (uPAR), PLAUR (gene 5329)
EXPERIMENTAL DETAILS: BSK_4H_uPAR: BioMAP Diversity Plus: 4H Assay for Urokinase-type plasminogen activator receptor (uPAR) Biomarker Activity (AID 2283030)
DETAILS: primary human endothelial cells (HUVEC); actives raise or lower the signal
Activity calls are given as the source filed them. How the source made its calls: active means hit-call score of the fitted dose curve at least 0.9, where 1 is the maximum; inactive means score below 0.9.
REPORTED METRIC: AC50

CCCCCCCCCCCCc1cccc(S(=O)(=O)O)c1 ... inactive
Cc1ccccc1OP(=O)(Oc1ccccc1)Oc1ccccc1 ... 32.2 µM (active)
N#CCCC(Br)(C#N)CBr (configuration not stated) ... 8.75 µM (active)
CCOC(=O)CC(=O)CCl ... inactive
CN(C)C(=S)S ... inactive
CCCCOC(=O)COC(=O)c1ccccc1C(=O)OCCCC ... inactive

Query compound follows.
If you can, please state the reported AC50 value of `CCCCN(CCCC)C(=S)[S-].CCCCN(CCCC)C(=S)[S-].[Ni+2]` .
inactive

---

EXPERIMENTAL DETAILS: ATG_DR4_LXR_CIS: Attagene CIS-FACTORIAL HepG2 Assay for human Liver X Receptor (LXR), DR4 submotif (AID 2282929)
DETAILS: HepG2 Attagene DR4 cis-reporter, mRNA transcription; actives raise or lower the signal
Calls of active or inactive are those of the source. The calls were made as follows: active = hit-call score of the fitted dose curve at least 0.9, where 1 is the maximum; inactive = score below 0.9.
REPORTED METRIC: AC50

CC(C)[C@H](C(=O)OC(C#N)c1cccc(Oc2ccccc2)c1)c1ccc(OC(F)F)cc1 (some centres undefined) ... inactive
CCCCC(CC)C(=O)Cl (centres undefined) ... inactive
Cc1c([N+](=O)[O-])c(C)c([N+](=O)[O-])c(C(C)(C)C)c1[N+](=O)[O-] ... 60.7 µM (active)
Cc1cccc(C)c1NC(=O)CN1CCCC1=O ... inactive
Nc1nc(N)nc(Cl)n1 ... inactive
O=[N+]([O-])c1ccc(Cl)c([N+](=O)[O-])c1 ... 5.36 µM (active)

If you can, please state the reported AC50 value of `C=C(C)[C@@H]1CC=C(C=O)CC1` .
inactive

Now consider CC(O)(CS(=O)(=O)c1ccc(F)cc1)C(=O)Nc1ccc(C#N)c(C(F)(F)F)c1 (centres undefined) .
inactive

Now consider `C=CC(=O)OCC(COC(=O)C=C)(COC(=O)C=C)COC(=O)C=C` .
3.12 µM (active)

Now consider `NC(=O)CCl` .
inactive

Now consider `Cc1cccc(N=Nc2ccc(N(C)C)cc2)c1` .
inactive

Now consider N#CCCC(Br)(C#N)CBr (centres undefined) .
inactive

Now consider `Brc1c(Br)c(Br)c(Oc2c(Br)c(Br)c(Br)c(Br)c2Br)c(Br)c1Br` .
inactive

Now consider `CCOc1ccc(N)cc1` .
inactive

Now consider `Oc1cc(Cl)c(Cl)cc1Cl` .
inactive

Now consider `Cc1ccccc1OP(=O)(Oc1ccccc1)Oc1ccccc1` .
12.3 µM (active)

Now consider `CCOc1cc(C=O)ccc1O` .
inactive

Now consider `C[As+](C)(C)CC(=O)[O-]` .
inactive

---

EXPERIMENTAL DETAILS: APR_HepG2_CellCycleArrest_24hr: Apredica 24-hour HepG2 Assay for Cell Cycle Arrest (AID 2282905);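 further: cell cycle arrest scored as ratio of 2N to 4N nuclear DNA content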
DETAILS: imaging, actives raise or lower the signal
The source made the active and inactive calls. The calls were made as follows: active = hit-call score of the fitted dose curve at least 0.9, where 1 is the maximum; inactive = score below 0.9.
Hi! Could you answer with just one of these? active, inactive

Recorded test call requested for `CC(C)O.CC(C)O.OCCN(CCO)CCO.OCCN(CCO)CCO.[Ti]`
inactive

Now consider `Clc1cccc(Cl)c1` .
inactive

Now consider `Oc1cc(Cl)c(Cl)cc1Cl` .
active

Now consider `CC(C)(C)c1ccccc1O` .
inactive

Now consider `Clc1cccc(Cl)c1Cl` .
inactive

Now consider `N#Cc1cccnc1` .
inactive

Now consider `Cc1cc(C)cc(C)c1` .
inactive

Now consider `COc1ccccc1N` .
inactive

---

SYSTEM NAME: Estrogen receptor (Homo sapiens) (UniProt P03372)
Sequence (P03372 whole entry, looked up): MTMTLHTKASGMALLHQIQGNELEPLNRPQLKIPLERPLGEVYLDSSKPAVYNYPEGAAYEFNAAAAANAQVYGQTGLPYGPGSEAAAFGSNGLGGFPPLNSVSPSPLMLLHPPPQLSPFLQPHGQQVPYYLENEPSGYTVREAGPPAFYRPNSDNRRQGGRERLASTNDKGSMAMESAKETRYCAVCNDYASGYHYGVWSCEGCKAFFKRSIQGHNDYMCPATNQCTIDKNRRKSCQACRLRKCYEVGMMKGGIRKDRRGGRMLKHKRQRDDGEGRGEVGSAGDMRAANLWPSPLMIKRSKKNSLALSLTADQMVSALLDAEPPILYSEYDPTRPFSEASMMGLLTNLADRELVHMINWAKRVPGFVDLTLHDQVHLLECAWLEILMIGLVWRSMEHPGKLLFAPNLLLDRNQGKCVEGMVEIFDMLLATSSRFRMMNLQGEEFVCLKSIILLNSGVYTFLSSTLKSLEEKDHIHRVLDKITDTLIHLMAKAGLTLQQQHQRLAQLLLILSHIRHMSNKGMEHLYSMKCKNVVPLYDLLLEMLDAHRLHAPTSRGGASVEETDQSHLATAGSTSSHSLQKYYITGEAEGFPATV
EXPERIMENTAL DETAILS: OT_ERa_GFPERaERE_0120: Odyssey Thera (OT) 2-hour HeLa Transcription Induction Assay for Estrogen Receptor (AID 2283382)
Active and inactive are the calls of the source. How the source made its calls: active means hit-call score of the fitted dose curve at least 0.9, where 1 is the maximum; inconclusive means response in the unintended direction; inactive means score below 0.9.
Hi! Could you answer with just one of these? active, inactive

Recorded test call requested for `CCN(CCO)CCO`
inactive

Now consider `CC(C)N(C(=O)CCl)c1ccccc1` .
inactive

Now consider `O=CCCl` .
inactive

Now consider `O=C(NC(=O)c1c(F)cccc1F)Nc1ccc(Cl)cc1` .
inactive

Now consider O=C1c2ccccc2C(=O)C1C(=O)C(c1ccccc1)c1ccc(Cl)cc1 (stereo unspecified) .
inactive

Now consider `Oc1c(Br)cc(Br)cc1Br` .
inactive

Now consider `CC(=Cc1ccccc1)[N+](=O)[O-]` .
active

Now consider O=S1OC[C@@H]2[C@H](CO1)[C@]1(Cl)C(Cl)=C(Cl)[C@@]2(Cl)C1(Cl)Cl (stereo partly specified) .
inactive

Now consider `N#CCC#N` .
inactive

Now consider O=C(NC(=O)c1c(F)cccc1F)Nc1cc(Cl)c(OC(F)(F)C(F)C(F)(F)F)cc1Cl (stereo unspecified) .
inactive

Now consider `CNC(=O)O/N=C/C(C)(C)S(C)(=O)=O` .
inactive

Now consider `CCCCCCCCCCCCN(C)C` .
inactive

Now consider `C=CCN=C=S` .
inactive

Now consider N#CCCC(Br)(C#N)CBr (stereo unspecified) .
inactive

Now consider Cc1cc(Cl)ccc1OC(C)C(=O)O (stereo unspecified) .
inactive

Now consider CC(O)(CS(=O)(=O)c1ccc(F)cc1)C(=O)Nc1ccc(C#N)c(C(F)(F)F)c1 (stereo unspecified) .
inactive

---

SYSTEM NAME: Estrogen receptor beta (Homo sapiens) (UniProt Q92731)
Sequence (Q92731 whole entry, looked up, the tested form may be a part): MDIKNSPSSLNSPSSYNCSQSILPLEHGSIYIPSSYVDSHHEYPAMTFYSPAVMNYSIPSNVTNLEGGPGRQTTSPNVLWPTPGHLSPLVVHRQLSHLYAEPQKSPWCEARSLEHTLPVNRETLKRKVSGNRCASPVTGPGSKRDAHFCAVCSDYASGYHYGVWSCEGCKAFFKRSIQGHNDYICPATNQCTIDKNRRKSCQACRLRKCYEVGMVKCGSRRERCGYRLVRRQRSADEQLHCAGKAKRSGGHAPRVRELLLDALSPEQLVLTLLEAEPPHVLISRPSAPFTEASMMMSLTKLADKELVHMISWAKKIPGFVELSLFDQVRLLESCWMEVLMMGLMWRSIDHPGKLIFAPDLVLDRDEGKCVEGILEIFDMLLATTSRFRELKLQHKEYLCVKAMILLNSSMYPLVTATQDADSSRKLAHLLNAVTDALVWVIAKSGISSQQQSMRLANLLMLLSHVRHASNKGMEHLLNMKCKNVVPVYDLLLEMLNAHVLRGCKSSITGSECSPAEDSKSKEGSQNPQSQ
EXPERIMENTAL DETAILS: OT_ER_ERbERb_1440: Odyssey Thera (OT) 24-hour HEK293T Protein-Complementation Assay for Estrogen Receptor-beta/-beta Homodimer (AID 2283380);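 further: fluorescence gain from ER beta LBD homodimer complementation read by laser scanning cytometry; scored as signal increase over DMSO baseline for both agonists and antagonists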
Method: OT_ER_ERbERb_1440 is a cell-based assay that uses HEK293T, a human kidney cell line, with measurements taken at 24 hours after chemical dosing in a 384-well plate.OT_ER_ERbERb_1440 is one of one assay component(s) measured or calculated from the OT_ER_ERbERb_1440 assay. […] This assay endpoint, OT_ER_ERbERb_1440, was analyzed in the positive analysis fitting direction relative to DMSO as the negative control and baseline of activity. […]
Active and inactive are the calls of the source. The calls were made as follows: active = hit-call score of the fitted dose curve at least 0.9, where 1 is the maximum; inconclusive = response in the unintended direction; inactive = score below 0.9.
Hi! Could you answer with just one of these? active, inactive

Recorded test call requested for `CCOc1ccc(N)cc1`
inactive

Now consider `COc1nn(C(=O)NS(=O)(=O)c2ccccc2OC(F)(F)F)c(=O)n1C` .
inactive

Now consider `Nc1ccc(N)cc1` .
active

Now consider `O=CCCl` .
inactive

Now consider `O=C(NC(=O)c1c(F)cccc1F)Nc1ccc(Cl)cc1` .
inactive

Now consider `O=C(O)COc1cc(Cl)c(Cl)cc1Cl` .
inactive

---

EXPERIMENTAL DETAILS: ATG_NFI_CIS: Attagene CIS-FACTORIAL HepG2 Assay for human Nuclear Factor I (NFI) (AID 2282989)
DETAILS: HepG2 cis-regulatory reporter, NFI response element transcription; actives raise or lower the signal
Active and inactive are the calls of the source. The calls were made as follows: active = hit-call score of the fitted dose curve at least 0.9, where 1 is the maximum; inactive = score below 0.9.
Hi! Could you answer with just one of these? true (1) for active, false (0) for inactive

Recorded test call requested for `O=C(O)COc1ccc(Cl)cc1`
false (0)

Now consider CCOC(=O)OC1=C(c2cc(C)ccc2C)C(=O)NC12CCC(OC)CC2 (stereo unspecified) .
false (0)

Now consider `COc1ccc([N+](=O)[O-])cc1O` .
false (0)

Now consider `Cc1cc(-c2cc(C)c(N)c(C)c2)cc(C)c1N` .
false (0)

Now consider `CC(C)(C)c1ccccc1O` .
true (1)

Now consider `C=CCOC(F)(C(F)(F)F)C(F)(F)F` .
false (0)

Now consider `CC(C)CP(=S)(S)CC(C)C` .
false (0)

Now consider `CC(C)N(C(=O)CCl)c1ccccc1` .
true (1)

Now consider `C[C@@H]1O[C@@H](O[C@H]2C[C@@H](O)[C@]3(CO)[C@H]4[C@H](O)C[C@]5(C)[C@@H](C6=CC(=O)OC6)CC[C@]5(O)[C@@H]4CC[C@]3(O)C2)[C@H](O)[C@H](O)[C@H]1O` .
true (1)

Now consider `CC1(C)[C@H](C(=O)O[C@H](C#N)c2cccc(Oc3ccccc3)c2)[C@@H]1/C=C(\Cl)C(F)(F)F` .
false (0)

Now consider `O=S(=O)(Oc1ccc(Cl)cc1)c1ccc(Cl)cc1` .
false (0)

---

SYSTEM NAME: Cellular tumor antigen p53 (Homo sapiens) (UniProt P04637)
Sequence (P04637 whole entry, looked up): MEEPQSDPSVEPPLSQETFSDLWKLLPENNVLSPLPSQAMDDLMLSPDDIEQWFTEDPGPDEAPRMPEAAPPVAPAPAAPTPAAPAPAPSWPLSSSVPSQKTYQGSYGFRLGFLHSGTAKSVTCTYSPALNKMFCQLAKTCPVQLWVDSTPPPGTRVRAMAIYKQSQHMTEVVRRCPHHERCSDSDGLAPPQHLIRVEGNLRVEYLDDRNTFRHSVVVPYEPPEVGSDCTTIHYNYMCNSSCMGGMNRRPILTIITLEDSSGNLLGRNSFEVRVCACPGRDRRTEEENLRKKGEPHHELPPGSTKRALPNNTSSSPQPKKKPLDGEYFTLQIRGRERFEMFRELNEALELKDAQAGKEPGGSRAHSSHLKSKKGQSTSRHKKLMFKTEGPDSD
EXPERIMENTAL DETAILS: ATG_p53_CIS: Attagene CIS-FACTORIAL HepG2 Assay for human p53 Transcription Factor (AID 2282994)
DETAILS: HepG2 p53 cis-element reporter, Attagene mRNA; actives raise or lower the signal
Calls of active or inactive are those of the source. How the source made its calls: active means hit-call score of the fitted dose curve at least 0.9, where 1 is the maximum; inactive means score below 0.9.
Hi! Could you answer with just one of these? active, inactive

Recorded test call requested for O=C1c2ccccc2C(=O)C1C(=O)C(c1ccccc1)c1ccc(Cl)cc1 (configuration not stated)
inactive

Now consider `CCOP(=S)(OCC)OP(=S)(OCC)OCC` .
inactive

Now consider `Nc1nc(=S)[nH][nH]1` .
inactive

Now consider `CCCCCCCCCCCCCl` .
inactive

Now consider `N#CCC#N` .
inactive

Now consider `CC(C)(c1ccc(O)c(-c2ccccc2)c1)c1ccc(O)c(-c2ccccc2)c1` .
inactive

Now consider CCOC(=O)C(SP(=S)(OC)OC)c1ccccc1 (configuration not stated) .
inactive

Now consider `c1csc(-c2ccc(-c3cccs3)s2)c1` .
inactive

Now consider `CCOP(=S)(OCC)Oc1ccc(Cl)cc1Cl` .
inactive

Now consider `Cc1ccc2nc3sc(=O)sc3nc2c1` .
inactive

Now consider `CCOP(=S)(OCC)SCS(=O)(=O)C(C)(C)C` .
inactive

Now consider `NC(=O)CCl` .
inactive

Now consider O=C(NC(=O)c1c(F)cccc1F)Nc1cc(Cl)c(OC(F)(F)C(F)C(F)(F)F)cc1Cl (configuration not stated) .
inactive

Now consider `CC(=O)CN(CC(C)=O)N=O` .
inactive

Now consider CC(C)=CC1C(C(=O)OCc2cccc(Oc3ccccc3)c2)C1(C)C (configuration not stated) .
inactive

Now consider `O=[N+]([O-])c1ccccc1O` .
inactive

Now consider `Cl[C@H]1OCCO[C@@H]1Cl` .
inactive

Now consider N#CCCC(Br)(C#N)CBr (configuration not stated) .
active

Now consider `C#C[C@]1(O)CC[C@H]2[C@@H]3CCC4=CC(=O)CC[C@]4(C)[C@H]3CC[C@@]21C` .
inactive

Now consider `O=C(O)CC(O)(CC(=O)O)C(=O)O` .
inactive

Now consider `Brc1ccc(Oc2c(Br)cc(Br)cc2Br)c(Br)c1` .
inactive

Now consider CC(C=O)Cc1ccc2c(c1)OCO2 (configuration not stated) .
inactive

Now consider `O=S1(=O)OC(c2cc(Br)c(O)c(Br)c2)(c2cc(Br)c(O)c(Br)c2)c2ccccc21` .
active

Now consider `CCCCOC(=O)COC(=O)c1ccccc1C(=O)OCCCC` .
inactive

Now consider CC(C)(COCC1CO1)COCC1CO1 (configuration not stated) .
inactive

Now consider `Oc1c(Cl)cc(Cl)cc1Cl` .
inactive

Now consider `C=CC(=O)OCC(COC(=O)C=C)(COC(=O)C=C)COC(=O)C=C` .
active
